Data origin, for the record: patent US20240425518A1

# Study Target: JAK3 (h) (Homo sapiens, UniProt P52333)
# Construct: purchased Eurofins
# Sequence (P52333 1-1124): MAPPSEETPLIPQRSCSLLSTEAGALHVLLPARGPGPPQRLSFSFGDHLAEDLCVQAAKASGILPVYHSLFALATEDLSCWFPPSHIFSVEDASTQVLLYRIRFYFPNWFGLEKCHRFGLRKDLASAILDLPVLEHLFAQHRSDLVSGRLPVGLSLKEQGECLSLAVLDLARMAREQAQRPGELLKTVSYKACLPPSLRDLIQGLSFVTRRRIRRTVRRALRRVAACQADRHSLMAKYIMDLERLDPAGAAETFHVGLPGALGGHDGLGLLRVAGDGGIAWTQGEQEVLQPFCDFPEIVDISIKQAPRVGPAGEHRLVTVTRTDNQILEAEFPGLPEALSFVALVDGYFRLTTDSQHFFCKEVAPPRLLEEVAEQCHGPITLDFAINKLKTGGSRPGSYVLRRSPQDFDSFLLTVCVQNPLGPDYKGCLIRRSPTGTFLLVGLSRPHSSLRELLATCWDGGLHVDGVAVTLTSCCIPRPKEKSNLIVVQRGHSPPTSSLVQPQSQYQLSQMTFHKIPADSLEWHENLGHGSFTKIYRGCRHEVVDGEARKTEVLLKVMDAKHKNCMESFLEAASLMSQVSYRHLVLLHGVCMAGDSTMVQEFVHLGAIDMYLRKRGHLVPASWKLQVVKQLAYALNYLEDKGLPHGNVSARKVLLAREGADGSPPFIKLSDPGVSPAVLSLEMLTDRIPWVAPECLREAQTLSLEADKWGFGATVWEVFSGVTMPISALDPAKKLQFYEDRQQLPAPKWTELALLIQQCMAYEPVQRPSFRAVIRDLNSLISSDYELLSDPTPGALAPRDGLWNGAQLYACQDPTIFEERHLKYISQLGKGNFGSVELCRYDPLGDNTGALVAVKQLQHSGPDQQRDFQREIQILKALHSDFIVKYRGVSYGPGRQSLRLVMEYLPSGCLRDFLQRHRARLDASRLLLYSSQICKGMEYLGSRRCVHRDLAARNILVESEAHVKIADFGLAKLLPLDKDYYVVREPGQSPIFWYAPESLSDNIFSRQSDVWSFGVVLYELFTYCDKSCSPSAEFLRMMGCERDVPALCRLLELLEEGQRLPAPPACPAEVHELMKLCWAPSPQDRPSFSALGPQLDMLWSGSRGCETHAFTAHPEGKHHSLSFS
# Protocol Notes: Radioisotope labeling kinase assay (Eurofins), JAK3
# Format: biochemical
# Experimental Context: 1 μM compound; read-out: Inhibitory activity per unit concentration/Activity % JAK3 (h)
# Procedure: An activity to a human recombinant protein kinase of a series of compounds was determined by a radioisotope labeling method, which was provided by Eurofins Company. […]
Catalogue of activity at 1 µM values
Use % as the unit, but write only the number.

Reference set, count: 3
compound=C=CC(=O)Nc1cc2cc(c1)Nc1nccc(n1)-c1cccc(c1)COC/C=C/CN(C)C2 study_target="JAK3 (h) (Homo sapiens, UniProt P52333)" reported_result=57
compound=O=C(/C=C/C(=O)N1CCOCC1)Nc1cc2cc(c1)Nc1nccc(n1)-c1cccc(c1)COC/C=C/COC2 study_target="JAK3 (h) (Homo sapiens, UniProt P52333)" reported_result=2
compound=C=CC(=O)Nc1cc2cc(c1)Nc1nccc(n1)-c1cccc(c1)COC/C=C/COC2 study_target="JAK3 (h) (Homo sapiens, UniProt P52333)" reported_result=16

Now for another entry.
Which value of activity at 1 µM has been reported for NC1CCN(C/C=C/C(=O)Nc2cc3cc(c2)Nc2nccc(n2)-c2cccc(c2)COC/C=C/COC3)C1 (stereo not shown) in the records?
4
